Assign IC50 to each entry below.
- target-or-test-system: Recombinant human IDO (Homo sapiens, UniProt P14902)
- Sequence (P14902 whole entry): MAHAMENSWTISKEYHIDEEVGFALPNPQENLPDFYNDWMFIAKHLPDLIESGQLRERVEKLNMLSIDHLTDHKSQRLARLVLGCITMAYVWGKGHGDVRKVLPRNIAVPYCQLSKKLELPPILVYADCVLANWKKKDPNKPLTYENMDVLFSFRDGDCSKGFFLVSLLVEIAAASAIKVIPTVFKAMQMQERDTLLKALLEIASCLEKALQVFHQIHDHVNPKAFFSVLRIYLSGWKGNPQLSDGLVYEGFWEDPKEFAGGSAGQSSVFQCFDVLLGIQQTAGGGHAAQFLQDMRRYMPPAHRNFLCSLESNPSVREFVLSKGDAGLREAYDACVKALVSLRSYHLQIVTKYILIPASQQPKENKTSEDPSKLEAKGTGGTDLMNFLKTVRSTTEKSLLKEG
- assay-details: Bridge-IT tryptophan fluorescence assay of human IDO-1 inhibition
- particulars: recombinant human IDO 7.5 nM, L-tryptophan

Given the entry OCC1CCC(F)(CCC2c3c(F)cccc3-c3cncn32)CC1 (single isomer, unassigned) [Compound 84b] , report its measured IC50.
> 1000 nM

Please do the same for NC(=O)C1CCC(C(O)CC2c3ncccc3-c3cncn32)CC1 (single isomer, unassigned) [Compound 63c] as well.
> 1000 nM

Please do the same for OC(CC1c2ncncc2-c2cncn21)C1CCCCC1 (mixture of isomers) [Compound 67d] as well.
> 1000 nM

Please do the same for Fc1cccc2c1C(CC(F)C1CCCCC1)n1cncc1-2 (single isomer, unassigned) [Compound 98a] as well.
100 to 1000 nM

Please do the same for O=C(C1CCC(F)(CCC2c3c(Cl)cccc3-c3cncn32)CC1)N1CCCCC1 (single isomer, unassigned) [Compound 115c] as well.
100 to 1000 nM

Please do the same for CC(C)(C)C(=O)N1CCC(C(O)CC2c3ncccc3-c3cncn32)CC1 (single isomer, unassigned) [Compound 88b] as well.
> 1000 nM

Please do the same for OC1CCC(F)(CCC2c3cccc(F)c3-c3cncn32)CC1 (single isomer, unassigned) [Compound 35d] as well.
> 1000 nM

* * *

Assign IC50 to each entry below.
- target-or-test-system: Recombinant human IDO (Homo sapiens, UniProt P14902)
- assay-details: Bridge-IT tryptophan fluorescence assay of human IDO-1 inhibition
- particulars: recombinant human IDO 7.5 nM, L-tryptophan
- Experimental: Measurement of human IDO-1 inhibition is performed in 384 well format using the Bridge-IT® tryptophan Fluorescence Assay (Mediomics, LLC, St. Louis, Mo., U.S.A.). The reaction is initiated by the addition of L-Tryptophan (Sigma) at a final concentration of 100 μM in assay buffer. […] Measurement of human IDO-1 inhibition was performed in 384-well format using the BRIDGE-IT® tryptophan Fluorescence Assay (Mediomics, LLC, St. Louis, Mo., U.S.A.). […]

Report IC50 for OC(CC1c2ncccc2-c2cncn21)C1CCCCC1 (single isomer, unassigned) [Compound 5a] tested on Recombinant human IDO (Homo sapiens, UniProt P14902).
100 to 1000 nM

Please do the same for CC(C)(O)C1CCC(F)(CCC2c3c(Cl)cccc3-c3cncn32)CC1 (mixture of isomers) [Compound 107a] as well.
> 1000 nM

Please do the same for FC1(CCC2c3ncccc3-c3cncn32)CCCCC1 (single isomer, unassigned) [Compound 18b] as well.
> 1000 nM

Please do the same for OC1CCC(C(F)(F)CC2c3c(F)ccc(F)c3-c3cncn32)CC1 (mixture of isomers) [Compound 78a] as well.
100 to 1000 nM

Please do the same for Fc1cccc2c1C(CCC1(F)CCCCC1)n1cncc1-2 (single isomer, unassigned) [Compound 19b] as well.
< 100 nM

Please do the same for Fc1ccc(F)c2c1-c1cncn1C2CCC1(F)CCCCC1 (single isomer, unassigned) [Compound 37a] as well.
> 1000 nM

Please do the same for Fc1cccc2c1C(CCC1(F)CCOCC1)n1cncc1-2 (single isomer, unassigned) [Compound 95b] as well.
100 to 1000 nM

Please do the same for OC1CCC(C(F)(F)CC2c3ccccc3-c3cncn32)CC1 (mixture of isomers) [Compound 74a] as well.
< 100 nM

Please do the same for OC(CC1c2ncccc2-c2cncn21)C1CCCCC1 (single isomer, unassigned) [Compound 5b] as well.
> 1000 nM

Please do the same for OC(CC1c2nc(OC3CC3)ccc2-c2cncn21)C1CCCCC1 (single isomer, unassigned) [Compound 68c] as well.
> 1000 nM

Please do the same for NS(=O)(=O)C1CCC(F)(CCC2c3ccccc3-c3cncn32)CC1 (single isomer, unassigned) [Compound 121b] as well.
> 1000 nM

Please do the same for OC1CCC(F)(CCC2c3cccc(F)c3-c3cncn32)CC1 (single isomer, unassigned) [Compound 35a] as well.
> 1000 nM

Please do the same for OCC1CCC(F)(CCC2c3c(F)cccc3-c3cncn32)CC1 (single isomer, unassigned) [Compound 84a] as well.
> 1000 nM

Please do the same for Oc1cccc2c1-c1cncn1C2CCC1(F)CCCCC1 (single isomer, unassigned) [Compound 43b] as well.
< 100 nM

Please do the same for COc1ccc2c(n1)C(CC(O)C1CCC3(CC1)CC3)n1cncc1-2 (single isomer, unassigned) [Compound 53c] as well.
> 1000 nM
